Data origin: paper PMC6859649

- system_tested: Myeloperoxidase (MPO) (Homo sapiens, UniProt P05164)
- Sequence (P05164 165-273): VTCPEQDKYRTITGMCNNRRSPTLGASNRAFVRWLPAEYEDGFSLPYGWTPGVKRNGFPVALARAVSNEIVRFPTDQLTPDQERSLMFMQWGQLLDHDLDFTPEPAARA
- Sequence (P05164 279-745): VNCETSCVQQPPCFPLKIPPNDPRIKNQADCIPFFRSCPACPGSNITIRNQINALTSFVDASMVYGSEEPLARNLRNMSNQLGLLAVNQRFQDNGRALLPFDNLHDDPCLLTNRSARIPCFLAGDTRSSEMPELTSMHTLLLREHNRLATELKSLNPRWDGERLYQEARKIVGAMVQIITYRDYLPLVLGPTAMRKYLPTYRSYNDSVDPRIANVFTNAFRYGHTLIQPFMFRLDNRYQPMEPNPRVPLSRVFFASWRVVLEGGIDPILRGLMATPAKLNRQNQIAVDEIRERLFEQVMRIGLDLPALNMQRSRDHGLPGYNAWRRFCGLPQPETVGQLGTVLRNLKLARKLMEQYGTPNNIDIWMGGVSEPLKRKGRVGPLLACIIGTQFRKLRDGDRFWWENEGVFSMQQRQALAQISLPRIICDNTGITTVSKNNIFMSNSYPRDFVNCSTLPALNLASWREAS
pIC50: −log10 of the molar value.
assay_readout: pIC50

INSERT INTO assay_data (compound, result) VALUES
  ('O=S(=O)(O)CCS [mesna]', '~5.30');
